- Test system: Human immunodeficiency virus 1
- assayText: Antiviral activity against HIV1 NL4-3 infected human MT2 cells assessed as viral infection at 10 uM administered 30 mins before viral challenge by luciferase reporter gene activation assay relative to control
- Format: functional
readout: Activity (%)
Form entry: value (%) — number only.

### Prompt Find the recorded Activity belonging to CC1(C)CC[C@]2(C(=O)NCCCCCCCCCCC(=O)O)CC[C@]3(C)C(=CC[C@@H]4[C@@]5(C)C[C@@H](O)[C@H](O)C(C)(C)[C@@H]5CC[C@]43C)[C@@H]2C1 and report it.
### Response 56.7

### Prompt Find the recorded Activity belonging to C[C@H](NC(=O)CCCNC(=O)[C@]12CCC(C)(C)C[C@H]1C1=CC[C@@H]3[C@@]4(C)C[C@@H](O)[C@H](O)C(C)(C)[C@@H]4CC[C@@]3(C)[C@]1(C)CC2)C(=O)O and report it.
### Response 83.7

### Prompt Find the recorded Activity belonging to CC(C)[C@H](NC(=O)CCCCCCCCCCNC(=O)[C@]12CCC(C)(C)C[C@H]1C1=CC[C@@H]3[C@@]4(C)C[C@@H](O)[C@H](O)C(C)(C)[C@@H]4CC[C@@]3(C)[C@]1(C)CC2)C(=O)O and report it.
### Response 44.9
